Entries and their PHOSPHORUS
- Species: Rattus norvegicus
- test_details: DrugMatrix - Regimen: Daily Repeat
- Format: toxicity, organism-based, Sprague-Dawley
- Design: regimen Daily Repeat, gender Male, age 6-8 weeks
- setup_conditions: in vivo, po, 10 mg/kg, 72 h, tissue Plasma, route oral GAVAGE, dose level Low, time 3 day, vehicle .5 % CMC
outcome_measure: PHOSPHORUS (mg/dL)

> print(dat)
                                   compound  unit.annotation  endpoint.value
1  O=C1CN=C(c2ccccc2Cl)c2cc([N+](=O)[O-])ccc2N1            mg/dL            11.3
2  Fc1ccc(C(c2ccc(F)cc2)N2CCN(C/C=C/c3ccccc3)CC2)cc1            mg/dL           12.27
3  CNCCC(Oc1ccc(C(F)(F)F)cc1)c1ccccc1 (centres undefined)            mg/dL              11
4  O=C1C(CC[S+]([O-])c2ccccc2)C(=O)N(c2ccccc2)N1c1ccccc1 (centres undefined)            mg/dL            12.1

###

- Species: Rattus norvegicus
- test_details: DrugMatrix - Regimen: Daily Repeat
- Type: toxicity, organism-based, Sprague-Dawley
- Parameters: regimen Daily Repeat, gender Male, age 6-8 weeks
- setup_conditions: in vivo, po, 1500 mg/kg, 72 h, tissue Plasma, route oral GAVAGE, dose level High, time 3 day, vehicle .5 % CMC
outcome_measure: LIPASE (u/L)

> print(dat)
                                   compound  unit.annotation  endpoint.value
1  O=c1cnn([C@@H]2O[C@H](CO)[C@@H](O)[C@H]2O)c(=O)[nH]1              u/L              10
2       CC(C)Oc1ccc2c(=O)c(-c3ccccc3)coc2c1              u/L            9.33
3                       CC(C)=CCC/C(C)=C/CO              u/L               9
4  COC(=O)Nc1nc2ccc([S+]([O-])c3ccccc3)cc2[nH]1 (stereo not given)              u/L            9.67
5  CN(C)[C@@H]1C(O)=C(C(N)=O)C(=O)[C@@]2(O)C(O)=C3C(=O)c4c(O)ccc(Cl)c4[C@@](C)(O)[C@H]3C[C@@H]12              u/L            9.33

###

- Organism: Rattus norvegicus
- test_details: DrugMatrix - Regimen: Daily Repeat
- Type: toxicity, organism-based, Sprague-Dawley
- Parameters: regimen Daily Repeat, gender Male, age 6-8 weeks
- setup_conditions: in vivo, po, 50 mg/kg, 72 h, tissue Blood, route oral GAVAGE, dose level Low, time 3 day, vehicle .5 % CMC
outcome_measure: MEAN CORPUSCULAR HEMOGLOBIN CONCENTRATION (G/DL)

> print(dat)
                                   compound  endpoint.value
1  NC1CCN(c2nc3c(cc2F)c(=O)c(C(=O)O)cn3-c2ccc(F)cc2F)C1 (centres undefined) [TOSUFLOXACIN]           36.27
2  CCN1CCC[C@H]1CNC(=O)c1cc(S(N)(=O)=O)ccc1OC [LEVOSULPIRIDE]           40.77
3  Cc1cccc(C)c1OCC(C)N (centres undefined) [MEXILETINE]              36
4  CN(C)[C@@H]1C(O)=C(C(N)=O)C(=O)[C@@]2(O)C(O)=C3C(=O)c4c(O)ccc(Cl)c4[C@@](C)(O)[C@H]3C[C@@H]12 [CHLORTETRACYCLINE]           39.13

###

- Species: Rattus norvegicus
- test_details: DrugMatrix - Regimen: Daily Repeat
- Assay type: toxicity, organism-based, Sprague-Dawley
- Parameters: regimen Daily Repeat, gender Male, age 6-8 weeks
- setup_conditions: in vivo, po, 2000 mg/kg, 72 h, tissue Blood, route oral GAVAGE, dose level High, time 3 day, vehicle .5 % CMC
outcome_measure: ABSOLUTE MONOCYTE

> print(dat)
                                   compound   endpoint.value
1  CC1(C)S[C@@H]2[C@H](NC(=O)[C@H](N)c3ccccc3)C(=O)N2[C@H]1C(=O)O      42 CELLS/uL
2  COc1cc2nc(N3CCN(C(=O)c4ccco4)CC3)nc(N)c2cc1OC     100 CELLS/uL
3  O=C1Nc2ccc(Cl)cc2C(c2ccccc2Cl)=NC1O (centres undefined)  259.33 CELLS/uL
4              CN/C(=N/CCSCc1nc[nH]c1C)NC#N      50 CELLS/uL

###

- Organism: Rattus norvegicus
- test_details: DrugMatrix - Regimen: Daily Repeat
- Format: toxicity, organism-based, Sprague-Dawley
- Parameters: regimen Daily Repeat, gender Male, age 6-8 weeks
- setup_conditions: in vivo, po, 0 mg/kg, 120 h, tissue Blood, route oral GAVAGE, dose level Control, time 5 day, vehicle .5 % CMC
Entries and their ABSOLUTE SEGMENTED NEUTROPHIL
outcome_measure: ABSOLUTE SEGMENTED NEUTROPHIL

> print(dat)
                                    compound                outcome.measure    endpoint.value
 1              CN/C(=N/CCSCc1nc[nH]c1C)NC#N  ABSOLUTE SEGMENTED NEUTROPHIL  1308.17 CELLS/uL
 2  CCN(CC)CCOc1ccc(/C(=C(/Cl)c2ccccc2)c2ccccc2)cc1  ABSOLUTE SEGMENTED NEUTROPHIL  1468.33 CELLS/uL
 3  O=C1C(CC[S+]([O-])c2ccccc2)C(=O)N(c2ccccc2)N1c1ccccc1 (stereo not given)  ABSOLUTE SEGMENTED NEUTROPHIL     1225 CELLS/uL
 4  O=C1CN=C(c2ccccc2Cl)c2cc([N+](=O)[O-])ccc2N1  ABSOLUTE SEGMENTED NEUTROPHIL  1308.17 CELLS/uL
 5  COc1cc2nc(N3CCN(C(=O)c4ccco4)CC3)nc(N)c2cc1OC  ABSOLUTE SEGMENTED NEUTROPHIL     1225 CELLS/uL
 6  Cn1c(=O)c2c(ncn2CC(O)CO)n(C)c1=O (stereo not given)  ABSOLUTE SEGMENTED NEUTROPHIL   1048.5 CELLS/uL
 7  CN(C)[C@@H]1C(O)=C(C(N)=O)C(=O)[C@@]2(O)C(O)=C3C(=O)c4c(O)ccc(Cl)c4[C@@](C)(O)[C@H]3C[C@@H]12  ABSOLUTE SEGMENTED NEUTROPHIL   1048.5 CELLS/uL
 8  O=C1Nc2ccc(Cl)cc2C(c2ccccc2Cl)=NC1O (stereo not given)  ABSOLUTE SEGMENTED NEUTROPHIL     1225 CELLS/uL
 9  C[C@H]1O[C@@H](n2cc(F)c(=O)[nH]c2=O)[C@H](O)[C@@H]1O  ABSOLUTE SEGMENTED NEUTROPHIL  1308.17 CELLS/uL
10    COC1=C(OC)C(=O)C(CCCCCCCCCCO)=C(C)C1=O  ABSOLUTE SEGMENTED NEUTROPHIL  1308.17 CELLS/uL

###

- Species: Rattus norvegicus
- test_details: DrugMatrix - Regimen: Daily Repeat
- Assay type: toxicity, organism-based, Sprague-Dawley
- Design: regimen Daily Repeat, gender Male, age 6-8 weeks
- setup_conditions: in vivo, po, 0 mg/kg, 120 h, tissue Plasma, route oral GAVAGE, dose level Control, time 5 day, […]

molecule	POTASSIUM
CO[C@H]1/C=C/O[C@@]2(C)Oc3c(C)c(O)c4c(O)c(c(/C=N/N5CCN(C6CCCC6)CC5)c(O)c4c3C2=O)NC(=O)/C(C)=C\C=C\[C@H](C)[C@H](O)[C@@H](C)[C@@H](O)[C@@H](C)[C@H](OC(C)=O)[C@@H]1C [RIFAPENTINE]	6.13 MEQ/L
CC(C)(C)NC(=O)[C@H]1CC[C@H]2[C@@H]3CC[C@H]4NC(=O)C=C[C@]4(C)[C@H]3CC[C@]12C [FINASTERIDE]	5.38 MEQ/L
Clc1ccc(COC(Cn2ccnc2)c2ccc(Cl)cc2Cl)cc1 (centres undefined) [ECONAZOLE]	5.18 MEQ/L
COc1cc(N)c(Cl)cc1C(=O)NC1CCN(CCCOc2ccc(F)cc2)CC1OC (centres undefined) [CISAPRIDE]	5.46 MEQ/L

###

- Species: Rattus norvegicus
- test_details: DrugMatrix - Regimen: Daily Repeat
- Assay type: toxicity, organism-based, Sprague-Dawley
- Design: regimen Daily Repeat, gender Male, age 6-8 weeks
- setup_conditions: in vivo, po, 0 mg/kg, 120 h, tissue Plasma, route oral GAVAGE, dose level Control, time 5 day, vehicle .5 % CMC
outcome_measure: URIC ACID (mg/dL)

> print(dat)
                                   molecule  endpoint.value
1  CN(C)[C@@H]1C(O)=C(C(N)=O)C(=O)[C@@]2(O)C(O)=C3C(=O)c4c(O)ccc(Cl)c4[C@@](C)(O)[C@H]3C[C@@H]12            1.63
2  COc1cc2nc(N3CCN(C(=O)c4ccco4)CC3)nc(N)c2cc1OC            1.45
3    COC1=C(OC)C(=O)C(CCCCCCCCCCO)=C(C)C1=O             1.5
4  O=C1C(CC[S+]([O-])c2ccccc2)C(=O)N(c2ccccc2)N1c1ccccc1 (stereo not given)            1.45
5  O=C1CN=C(c2ccccc2Cl)c2cc([N+](=O)[O-])ccc2N1             1.5
